From: patent US11415579B2

# targetDesc: Cdk2(R122C) (C177A) (Homo sapiens, UniProt P24941, C177A/R122C)
# Construct: poly-histidine; made in house; host or cells: E. coli
# protocol: Kinetic thiol consumption assay with Cdk2 mutant R122C
# Type: binding
# assayContext: Protein: Cdk2; cysteine position R122C; additional mutation C177A; in h-1
testReadout: Rate constant with Cdk2 R122C
// response body must contain only the number

Ask | Any idea what Rate constant with Cdk2 R122C was measured for C=CC(=O)Nc1ccc(-c2ncccn2)cc1 ?
Reply | 0.0147

Ask | Any idea what Rate constant with Cdk2 R122C was measured for O=S1(=O)C=CC(Br)C1 (centres unmarked) ?
Reply | 0.2291

Ask | Any idea what Rate constant with Cdk2 R122C was measured for C=CC(=O)NCC1(NC(=O)OC(C)(C)C)CCCCC1 ?
Reply | 0.002778

Ask | Any idea what Rate constant with Cdk2 R122C was measured for C=CC(=O)N1CCC2(CC1)NC(=O)C1(CCCCC1)N2 ?
Reply | 0.01011

Ask | Any idea what Rate constant with Cdk2 R122C was measured for C=CC(=O)N1CCCCCC1c1cccs1 (centres unmarked) ?
Reply | 0.002484

Ask | Any idea what Rate constant with Cdk2 R122C was measured for C=CC(=O)N1CCCN2C(=O)CCC12c1ccc(OC)cc1 (centres unmarked) ?
Reply | 0.004032

Ask | Any idea what Rate constant with Cdk2 R122C was measured for C=CC(=O)N1CCCC1CC1CC2CCC1C2 (centres unmarked) ?
Reply | 0.002699

Ask | Any idea what Rate constant with Cdk2 R122C was measured for C=CC(=O)N(c1ccc2c(c1)OCCO2)C1CC1 ?
Reply | 0.003155

Ask | Any idea what Rate constant with Cdk2 R122C was measured for C=CC(=O)Nc1ccc(C(=O)OC)cc1 ?
Reply | 0.02124

Ask | Any idea what Rate constant with Cdk2 R122C was measured for C=CC(=O)NC1(c2noc(C3CC3)n2)CCCC1 ?
Reply | 0.001875

Ask | Any idea what Rate constant with Cdk2 R122C was measured for C=CC(=O)NCCc1c(-c2ccccn2)[nH]c2ccc(F)cc12 ?
Reply | 0.0009787
